The reported measurements were obtained from ChEMBL document CHEMBL1795306.

Subject of test: Protein arginine N-methyltransferase 1 (Homo sapiens, UniProt Q99873)
Sequence (Q99873 whole entry, looked up): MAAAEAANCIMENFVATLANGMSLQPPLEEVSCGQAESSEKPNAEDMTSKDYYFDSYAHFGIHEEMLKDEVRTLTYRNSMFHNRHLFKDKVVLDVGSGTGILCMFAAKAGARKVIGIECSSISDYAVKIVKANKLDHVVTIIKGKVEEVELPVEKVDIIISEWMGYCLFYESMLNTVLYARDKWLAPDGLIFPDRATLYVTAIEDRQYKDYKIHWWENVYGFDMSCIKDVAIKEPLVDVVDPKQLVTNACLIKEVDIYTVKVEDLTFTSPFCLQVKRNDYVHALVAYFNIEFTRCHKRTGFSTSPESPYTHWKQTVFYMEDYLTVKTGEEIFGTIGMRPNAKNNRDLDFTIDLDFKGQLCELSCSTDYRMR
Method: Inhibition of human recombinant PRMT1-mediated arginine methylation at 10 uM using nonhistone protein Npl3 substrate by ELISA
Label YES for high-side inhibition (at or above 20%) and NO for low-side inhibition (below it).

Molecule	Label class
Nc1ccc(S(=O)(=O)c2ccc(NC(=O)NCc3ccccc3)cc2)cc1	NO
O=C(Nc1ccc(S(=O)(=O)NCCc2ccccc2)cc1)c1ccc(Br)cc1	YES
Nc1ccc(S(=O)(=O)NCc2ccccc2)cc1	YES
Nc1ccc(S(=O)(=O)c2ccc(NC(=O)Cc3ccccc3)cc2)cc1	YES
O=C(Cc1ccccc1)Nc1ccc(S(=O)(=O)NCCc2ccccc2)cc1	NO
Nc1ccc(S(=O)(=O)NCCc2ccc(O)cc2)cc1	YES
CCCC(=O)Nc1ccc(S(=O)(=O)c2ccc(NC(=O)CCC)cc2)cc1	NO
O=C(Nc1ccc(S(=O)(=O)NCCc2ccccc2)cc1)c1ccc(-c2ccccc2)cc1	YES
O=C(Nc1ccc(S(=O)(=O)NCCc2ccccc2)cc1)c1ccccc1	NO
Nc1ccc(C(=O)Nc2ccc(S(=O)(=O)NCCc3ccccc3)cc2)cc1	YES
CCC(=O)Nc1ccc(S(=O)(=O)c2ccc(N)cc2)cc1	YES
COc1ccc(CNS(=O)(=O)c2ccc(N)cc2)cc1	NO
CC(NS(=O)(=O)c1ccc(N)cc1)c1ccccc1 (stereo not drawn)	YES
